target: recombinant human THOP1 (Homo sapiens (Human)); experiment: In vitro protease assay with THOP1
Sequence (P52888 whole entry): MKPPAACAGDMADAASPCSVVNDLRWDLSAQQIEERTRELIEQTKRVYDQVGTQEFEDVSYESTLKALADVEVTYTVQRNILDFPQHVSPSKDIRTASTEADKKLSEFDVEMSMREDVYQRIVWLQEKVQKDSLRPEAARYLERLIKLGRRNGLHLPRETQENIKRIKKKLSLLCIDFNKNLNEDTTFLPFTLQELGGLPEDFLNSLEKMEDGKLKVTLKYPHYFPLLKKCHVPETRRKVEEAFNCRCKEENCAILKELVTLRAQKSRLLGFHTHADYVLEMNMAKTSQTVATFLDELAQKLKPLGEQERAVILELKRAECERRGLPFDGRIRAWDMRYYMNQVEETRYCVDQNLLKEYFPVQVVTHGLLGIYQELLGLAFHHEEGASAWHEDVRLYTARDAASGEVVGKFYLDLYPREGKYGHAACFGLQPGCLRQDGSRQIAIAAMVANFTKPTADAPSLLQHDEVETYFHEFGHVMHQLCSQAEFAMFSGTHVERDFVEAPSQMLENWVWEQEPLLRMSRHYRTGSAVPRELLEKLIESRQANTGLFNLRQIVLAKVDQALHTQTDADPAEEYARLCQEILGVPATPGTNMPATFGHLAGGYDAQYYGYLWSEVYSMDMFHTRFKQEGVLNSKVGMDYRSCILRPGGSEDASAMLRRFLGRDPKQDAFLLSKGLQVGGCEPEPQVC
measurement-name: IC50
// unit must come after the numeric part

Param item = N=C(N)NCCC[C@H](NC(=O)[C@@H](CC(=O)NO)Cc1ccc2ccccc2c1)C(=O)N[C@@H](Cc1c[nH]c2ccccc12)C(=O)N[C@@H](CCC(=O)O)C(N)=O [Ii1, reference compound] ; retrieve measured IC50.
6 nM

====

Biological target: IDE (Homo sapiens (Human), UniProt P14735)
Sequence (P14735 whole entry): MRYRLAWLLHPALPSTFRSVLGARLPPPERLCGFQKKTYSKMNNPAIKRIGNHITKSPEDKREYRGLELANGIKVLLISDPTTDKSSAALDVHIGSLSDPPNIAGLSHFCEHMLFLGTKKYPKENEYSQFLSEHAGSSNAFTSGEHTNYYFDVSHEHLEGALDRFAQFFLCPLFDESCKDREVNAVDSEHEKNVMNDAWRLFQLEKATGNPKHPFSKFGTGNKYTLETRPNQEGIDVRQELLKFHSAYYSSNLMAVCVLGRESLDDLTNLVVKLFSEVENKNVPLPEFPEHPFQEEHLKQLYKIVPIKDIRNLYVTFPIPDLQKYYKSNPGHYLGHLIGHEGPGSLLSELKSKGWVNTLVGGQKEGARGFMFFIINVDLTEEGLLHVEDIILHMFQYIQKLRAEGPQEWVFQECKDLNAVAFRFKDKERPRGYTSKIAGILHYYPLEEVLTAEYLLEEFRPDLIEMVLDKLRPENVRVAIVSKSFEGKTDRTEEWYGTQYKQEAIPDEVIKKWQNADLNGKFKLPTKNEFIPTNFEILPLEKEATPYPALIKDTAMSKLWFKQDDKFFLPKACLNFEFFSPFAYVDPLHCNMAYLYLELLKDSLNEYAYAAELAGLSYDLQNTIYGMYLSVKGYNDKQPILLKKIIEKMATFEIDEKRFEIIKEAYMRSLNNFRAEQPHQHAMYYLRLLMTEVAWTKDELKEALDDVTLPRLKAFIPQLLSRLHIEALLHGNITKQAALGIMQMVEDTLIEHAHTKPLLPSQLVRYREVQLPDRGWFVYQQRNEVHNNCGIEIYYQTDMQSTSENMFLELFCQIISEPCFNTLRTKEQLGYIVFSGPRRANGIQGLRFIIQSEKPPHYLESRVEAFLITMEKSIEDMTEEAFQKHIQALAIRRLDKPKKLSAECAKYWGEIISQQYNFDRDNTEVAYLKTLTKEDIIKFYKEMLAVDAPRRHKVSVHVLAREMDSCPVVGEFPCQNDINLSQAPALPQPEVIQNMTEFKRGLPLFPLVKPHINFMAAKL
Experiment: In vitro protease assay with IDE (cleavage of fluorophore-quencher substrate peptide)
Assay type: biochemical
Settings: fluorophore-quencher model peptide
Method: Protease assays with IDE and neprilysin were performed using Mca-RPPGFSAFK(Dnp)-OH substrate peptide (R&D Systems, SEQ ID NO: 6) and purified recombinant human IDE and recombinant human neprilysin (R&D Systems) according to the manufacturer's instructions. […] 50 μL of 20 μM substrate peptide in IDE assay buffer was then added to initiate the reaction, and peptide cleavage was monitored on a fluorescent plate reader (excitation=320 nm; emission=405 nm) for 5 minutes. […]
The molecules listed here are annotated with their pIC50.
The quantity pIC50 is defined as the negative base-10 logarithm of the molar concentration.

Check out these entries, answers already filled in.
N=C(N)NCCCC1NC(=O)C=CC(=O)NC(C(N)=O)CCCCNC(=O)C(Cc2ccc(C(=O)c3ccccc3)cc2)NC(=O)C(CC2CCCCC2)NC1=O (stereo not drawn) [Compound 2]	5.00
NC(=O)C1CCCCNC(=O)C(Cc2ccc(C(=O)c3ccccc3)cc2)NC(=O)C(CC2CCCCC2)NC(=O)CC(O)C(CC2CCCCC2)NC(=O)C=CC(=O)N1 (stereo not drawn) [Compound 3b]	5.82
NC(=O)CCC1NC(=O)C=CC(=O)NC(C(N)=O)CCCCNC(=O)C(Cc2ccc(C(=O)c3ccccc3)cc2)NC(=O)C(CC2CCCCC2)NC1=O (stereo not drawn) [Compound 6a]	5.25
NC(=O)CCC1NC(=O)C=CC(=O)NC(C(N)=O)CCCCNC(=O)C(Cc2ccc(C(=O)c3ccccc3)cc2)NC(=O)C(CC2CCCCC2)NC1=O (stereo not drawn) [Compound 6b]	7.22

Query molecule follows.
Param item = NC(=O)C1CCCCNC(=O)C(Cc2ccc(C(=O)c3ccccc3)cc2)NC(=O)C(CC2CCCCC2)NC(=O)C(CC2CC2)NC(=O)C=CC(=O)N1 (stereo not drawn) [Compound 5b] ; retrieve measured pIC50.
6.00

====

molecular target: IDE (Homo sapiens (Human)); test: In vitro protease assay with IDE (cleavage of fluorophore-quencher substrate peptide); format: biochemical; settings: fluorophore-quencher model peptide
measurement-name: IC50

NC(=O)C1CCCCNC(=O)C(Cc2ccc(C(=O)c3ccccc3)cc2)NC(=O)C(CC2CCCCC2)NC(=O)C(CC2CC2)NC(=O)C=CC(=O)N1 (stereo not shown) [Compound 5a]	> 20 µM
NC(=O)CCC1NC(=O)C=CC(=O)NC(C(N)=O)CCCCNC(=O)CNC(=O)C(CC2CCCCC2)NC1=O (stereo not shown) [Compound 1]	> 100 µM

Param item = NC(=O)C1CCCCNC(=O)C(Cc2ccc(C(=O)c3ccccc3)cc2)NC(=O)C(CC2CCCCC2)NC(=O)CC(O)C(CC2CCCCC2)NC(=O)C=CC(=O)N1 (stereo not shown) [Compound 3a] ; retrieve measured IC50.
> 20 µM

Follow-up entry: NC(=O)C1CCCCNC(=O)CNC(=O)C(CC2CCCCC2)NC(=O)CC(O)C(CC2CCCCC2)NC(=O)C=CC(=O)N1 (stereo not shown) [Compound 4a]
> 100 µM
